Values from ChEMBL document CHEMBL1156851

Test: Cytotoxicity against HEL cells assessed as reduction of cell growth
Type: cell-based
Conditions: human
Listed here: items and their measured CC50.

>  <compound>
CCn1c(C)cc2c(c1=O)C(c1cn([C@H]3C[C@H](OC(C)=O)[C@@H](COC(C)=O)O3)c(=O)[nH]c1=O)C(C#N)=C(N)O2 (stereo partly drawn)

>  <CC50>
> 100 µM

$$$$
>  <compound>
CC(=O)OC[C@H]1O[C@@H](n2cc(C3C(C#N)=C(N)Oc4cc(C)n(C)c(=O)c43)c(=O)[nH]c2=O)C[C@@H]1OC(C)=O (stereo partly drawn)

>  <CC50>
> 100 µM

$$$$

For the next question, use this compound.
Sample CCn1c(C)cc2c(c1=O)C(c1cn([C@H]3C[C@H](O)[C@@H](CO)O3)c(=O)[nH]c1=O)C(C#N)=C(N)O2 (stereo partly drawn) ; CC50 observed: > 100 µM
